For each record, write down the corresponding AUC(0-t).
- METHOD: in vivo
- PARTICULARS: monkey, crab-eating monkeys, oral, 2 mg/kg, plasma, read-out: Oral AUClast
Field: numeric (µg·h/mL). Do not append units.

// AUC(0-t) lookup, molecule = [2H]C([2H])([2H])n1cc2cc(Nc3nc(=O)n(-c4cncc(Cl)c4)c(=O)n3Cc3cc(F)c(F)cc3F)c(Cl)cc2n1 , result: 60.7

// AUC(0-t) lookup, molecule = O=c1nc(Nc2cc3cn(CCO)nc3cc2Cl)n(Cc2cc(F)c(F)cc2F)c(=O)n1-c1cncc(Cl)c1 , result: 15.2

// AUC(0-t) lookup, molecule = [2H]C([2H])([2H])n1cc2cc(Nc3nc(=O)n(-c4cncc(Cl)c4)c(=O)n3Cc3cc(F)c(F)cc3F)c(Br)cc2n1 , result: 59
